All values here come from ChEMBL document CHEMBL2440052.

system: HepG2; experiment: Cytotoxicity against human HepG2 cells at 15 uM after 72 hrs by MTT assay relative to control; type: functional; conditions: HepG2, 72 h, values are per cent of control
Observation type: viability, % of control at 15 µM (%)
Numbers only, in %.

Below, each entry is followed by its recorded viability, % of control at 15 µM result.
Entry smiles: CN1CCN(C(=O)[C@H]2Cc3c([nH]c4ccccc34)[C@@H]3N(C)c4ccccc4C(=O)N23)CC1
viability, % of control at 15 µM / %: 91

Entry smiles: CN1c2ccccc2C(=O)N2[C@@H](C(=O)N3CCCCC3)Cc3c([nH]c4ccccc34)[C@H]12
viability, % of control at 15 µM / %: 75

Entry smiles: CN1c2ccccc2C(=O)N2[C@@H](C(=O)O)Cc3c([nH]c4ccccc34)[C@H]12
viability, % of control at 15 µM / %: 107

# per-item lookup of viability, % of control at 15 µM; items listed below
1. CN1c2ccccc2C(=O)N2CCc3c([nH]c4ccccc34)[C@H]21
2. COC(=O)[C@@H]1Cc2c([nH]c3ccccc23)[C@H]2N(C)c3ccccc3C(=O)N12

a:
1. 69
2. 101

----------
target: NAD-dependent protein deacetylase sirtuin-2 (Homo sapiens); experiment: Inhibition of recombinant GST-SIRT2 (unknown origin) using KI179 as substrate at 200 uM after 45 mins by fluorescence assay
Observation type: inhibition (%)
Answers are plain numbers, in %.

Solved entries:
Entry smiles: CN1CCN(C(=O)[C@@H]2Cc3c([nH]c4ccccc34)[C@H]3N(C)c4ccccc4C(=O)N23)CC1
Assayed target: NAD-dependent protein deacetylase sirtuin-2 (Homo sapiens)
inhibition, %: 43
--
Entry smiles: COC(=O)[C@@H]1Cc2c([nH]c3ccccc23)[C@H]2N(C)c3ccccc3C(=O)N12
Assayed target: NAD-dependent protein deacetylase sirtuin-2 (Homo sapiens)
inhibition, %: 80
--
Entry smiles: CN1c2ccccc2C(=O)N2[C@H](C(=O)N3CCCCC3)Cc3c([nH]c4ccccc34)[C@@H]12
Assayed target: NAD-dependent protein deacetylase sirtuin-2 (Homo sapiens)
inhibition, %: 46
--
Entry smiles: CN1c2ccccc2C(=O)N2[C@H](C(=O)N3CCOCC3)Cc3c([nH]c4ccccc34)[C@@H]12
Assayed target: NAD-dependent protein deacetylase sirtuin-2 (Homo sapiens)
inhibition, %: 36

// batch mode: one inhibition value per listed entry
1. COC(=O)[C@H]1Cc2c([nH]c3ccccc23)[C@@H]2N(C)c3ccccc3C(=O)N12
2. CN1c2ccccc2C(=O)N2[C@H](C(=O)O)Cc3c([nH]c4ccccc34)[C@@H]12
3. CN1c2ccccc2C(=O)N2[C@H](C(=O)N3CCSCC3)Cc3c([nH]c4ccccc34)[C@@H]12
4. CNC(=O)[C@@H]1Cc2c([nH]c3ccccc23)[C@H]2N(C)c3ccccc3C(=O)N12

a:
1. 78
2. 60
3. 35
4. 62

----------
system: HepG2; test: Cytotoxicity against human HepG2 cells at 15 uM after 72 hrs by MTT assay relative to control; assay type: functional; conditions: HepG2, 72 h, values are per cent of control
Observation type: viability, % of control at 15 µM (%)
One number for each entry, in %.

Entry smiles: CN1c2ccccc2C(=O)N2[C@H](C(=O)N3CCCCC3)Cc3c([nH]c4ccccc34)[C@@H]12
Measurement units: %
Reported: 110

Working through the 2 molecules below one at a time, give viability, % of control at 15 µM for each.
1. COC(=O)[C@H]1Cc2c([nH]c3ccccc23)[C@@H]2N(C)c3ccccc3C(=O)N12
2. CN1c2ccccc2C(=O)N2[C@@H](C(=O)N3CCSCC3)Cc3c([nH]c4ccccc34)[C@H]12

a:
90
89
